system: SNB-75; experiment: NCI tumour cell line growth inhibition, 48 h
Calls of active or inactive are those of the source. Cut-off read from the data, not from the text of the source: active = GI50 up to about 1.1 µM and inactive = higher.
Observation type: GI50

Example cases with answers are listed next.
C[n+]1c(-c2ccc(/C=N/NC(=N)N/N=C/c3ccc(-c4cn5cc(Cl)ccc5[n+]4C)cc3)cc2)cn2cc(Cl)ccc21
> 100 µM (inactive)
O=C(CCCl)NN=C1NCCN1
> 100 µM (inactive)
CCN(CC)Cc1cc(Nc2c3ccccc3nc3c4ccccc4n(C)c23)ccc1O
13.6 µM (inactive)

What the record says about COC(=O)[C@@H](Cc1ccccc1)N1O[C@]12CCCC[C@@H]2NC(=O)OC(C)(C)C (stereo not given in full) : GI50 is 30.4 µM (inactive)

What the record says about COC(=O)CN1SC2(SC13C(C)(C)C(=O)C3(C)C)C(C)(C)C(=O)C2(C)C : GI50 is 37.8 µM (inactive)

* * *

test system: HL-60; experiment: NCI tumour cell line growth inhibition, 48 h
The source made the active and inactive calls. Rule as the data show it: active = GI50 up to about 1.1 µM and inactive = higher.
Observation type: GI50

Example cases with answers are listed next.
COC(=O)C1=C(C(=O)OC)C2(C)Nc3ccccc3C2=C(c2ccccc2)C1 (stereo not drawn)
19.9 µM (inactive)
CC(=O)NNC1=NN(C(C)=O)C2(S1)C(=O)Nc1ccc(Br)cc12 (stereo not drawn)
> 100 µM (inactive)
N#Cc1c(N)nc2[nH]nc(N)c2c1-c1ccc(Cl)cc1
9.75 µM (inactive)

What the record says about N#Cc1ccccc1Nc1ccccc1S : GI50 is 25.3 µM (inactive)

What the record says about COC1CCC(OC)C(C2(C3CC(OC)CCC3OC)OC(=O)c3ccccc32)C1 (stereo not drawn) : GI50 is 13.7 µM (inactive)

What the record says about O=C1/C(=C/C=C/c2ccccc2)CCC1CNc1ccc(Br)cc1 (stereo not drawn) : GI50 is 17.1 µM (inactive)

* * *

tested on: KM-20L2; experiment: NCI tumour cell line growth inhibition, 48 h
Activity calls are given as the source filed them. Rule as the data show it: active = GI50 up to about 1.1 µM and inactive = higher.
// one of y = active, n = inactive, no free text

O=c1nc(NC(c2ccccc2)(c2ccccc2)c2ccccc2)ccn1CCCl
n

Query: Fill in: this test's call for Cc1cc(C(=O)NCCN(C)C)c2nc3ccccc3cc2c1 is ___
Response: y

Query: Fill in: this test's call for COC(=O)[C@]1(C)CCC[C@@]2(C)C1CCC1=C[C@@]3(C(C)C)CC[C@]12OO3 (stereo partly drawn) is ___
Response: n

* * *

system: U-251; assay: NCI tumour cell line growth inhibition, 48 h
Calls of active or inactive are those of the source. Rule as the data show it: active = GI50 up to about 1.1 µM and inactive = higher.
# key: entry, value: GI50

Example cases with answers are listed next.
Cc1c(C(=O)CSc2nc3ccccc3c(=O)n2-c2ccccc2)c(=O)n(-c2ccccc2)n1C
22.4 µM (inactive)
COc1ccc(-c2oc3c(OC)c(OC)c(OC)c(O)c3c(=O)c2OC)cc1OC
27.7 µM (inactive)
O=C1C=C2C(=NC34CCCCC3C(c3ccccc3)C3=C(c5ccccc5CC3)N24)c2ccccc21 (configuration not stated)
> 10 µM (inactive)
COc1ccc(/C=C(/C#N)C(N)=O)cc1OC
> 100 µM (inactive)
COc1ccc(OC)c2c(C(=O)O)c(C(C)c3ccccc3)ccc12 (configuration not stated)
91.4 µM (inactive)
Cc1ccc(/C=C/C(=O)c2c([O-])on[n+]2-c2ccccc2)cc1
2.79 µM (inactive)

What the record says about COc1ccc(C)cc1-c1ccc(-c2cc(C)ccc2OC)o1 : GI50 is > 100 µM (inactive)

Hey, just so you know, these numbers are from ChEMBL document CHEMBL1201862.
